Target: Sialic acid-binding Ig-like lectin 9 (Homo sapiens) (UniProt Q9Y336)
Sequence (Q9Y336 whole entry): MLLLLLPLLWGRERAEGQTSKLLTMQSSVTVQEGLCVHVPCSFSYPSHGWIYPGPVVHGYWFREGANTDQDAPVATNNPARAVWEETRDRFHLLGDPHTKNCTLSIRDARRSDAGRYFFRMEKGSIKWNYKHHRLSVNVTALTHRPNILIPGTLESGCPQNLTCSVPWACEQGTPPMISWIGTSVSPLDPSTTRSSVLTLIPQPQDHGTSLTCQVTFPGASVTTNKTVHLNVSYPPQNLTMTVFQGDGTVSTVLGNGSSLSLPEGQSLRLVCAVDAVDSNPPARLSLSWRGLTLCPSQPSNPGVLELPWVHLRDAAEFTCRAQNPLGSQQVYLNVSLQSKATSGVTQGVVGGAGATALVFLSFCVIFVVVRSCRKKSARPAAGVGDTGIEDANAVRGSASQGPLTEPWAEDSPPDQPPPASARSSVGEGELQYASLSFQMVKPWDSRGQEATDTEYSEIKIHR
Assay: Hs-Siglec9 ALPHAscreen SOP 20170721
Set-up: scale not given: direction of the effect not stated beside the values
Conditions: 10 µM

{"columns": ["compound", "value.units", "Percent Effect"],
 "data": [
  ["Cc1ccc(C(=O)N2CCCC3(CCCC(=O)N3C)C2)cc1F (stereo not drawn)", "%", -4.32],
  ["O=C(NCCc1cccnc1)N1CCCC1c1ccsc1 (stereo not drawn)", "%", -11.1],
  ["COc1cccc(-n2nnc(C(=O)N3CCN(C)CC3C)c2C)c1 (stereo not drawn)", "%", -23.9],
  ["Cc1ccccc1-c1cncc(C2CCN(C(C)C)CC2)n1", "%", 6.88],
  ["Fc1ccc(-c2nnc(CN3CCn4c(nnc4C4CC4)C3)o2)cc1", "%", 2.87],
  ["Cc1cc(CN(C)C(=O)c2ccnc(N(C)C)c2)no1", "%", 1.08],
  ["NCc1cn(-c2ccccc2C(=O)NCc2cccc(Cl)c2)cn1", "%", -1.67],
  ["CN(Cc1noc(C2CC2)n1)C1CCN(Cc2ccncc2)C1 (stereo not drawn)", "%", -22.8],
  ["CCc1nc(C2CCCN2C(=O)CCCn2cccn2)no1 (stereo not drawn)", "%", 9.24],
  ["CC(C)c1cc(N2CCC(N)CC2)n2nccc2n1", "%", 8.57],
  ["Cc1noc(C(C)C)c1C(=O)NCCN1CCCCCC1=O", "%", 3.57],
  ["Cc1nn(C)c(N(C)C)c1CNCCNS(C)(=O)=O", "%", -0.784],
  ["CN(Cc1nnc(C2CC2)o1)C1CCN(CCCc2cnn(C)c2)C1 (stereo not drawn)", "%", -3.87],
  ["CN(C)c1ccc(NC(=O)NCc2ccccn2)cn1", "%", -3.66],
  ["CC(C)n1ccnc1CN1CCCN(C(=O)c2nccnc2N)CC1", "%", -9.32],
  ["CCNC(=O)[C@@H]1C[C@@H](NC(=O)c2cccnc2O)CN1Cc1ccsc1", "%", 11.3],
  ["Cc1nc(CN2CCO[C@@H]3CN(C(=O)NC(C)C)CC[C@@H]3C2)cs1", "%", 0.95],
  ["Cc1ccc(NC(=O)C2CSCN2C(=O)c2cnn(C)c2)c(C)c1 (stereo not drawn)", "%", 11],
  ["COCc1c(C(=O)NC2CCCC2)nnn1-c1ccc(C)cc1", "%", -6.27],
  ["Cc1nn(C)c(N(C)C)c1CNCCCN(C)S(C)(=O)=O", "%", -8.74],
  ["CCc1nc(C)ncc1C(=O)N1CCCC(n2nc(C)nc2C)C1 (stereo not drawn)", "%", -2.48],
  ["OC(COCc1ccccc1F)CN1CCc2c(ncn2C2CC2)C1 (stereo not drawn)", "%", 7.5],
  ["Cc1ccc(NC2CCN(C(=O)c3cccc4ncccc34)CC2)nn1", "%", -2.08],
  ["O=C(CC1CCCC1)N1C[C@@H]2CCN(c3cccnc3)C[C@@H]2C1", "%", 3.29],
  ["CC(C)n1ccnc1CN1CCCN(C(=O)c2cc(Cl)c[nH]2)CC1", "%", -9.31],
  ["Cc1ccccc1CC(=O)N(C)C1CCCC1", "%", -5.48],
  ["CC(C)(C)c1nnc(CN2CCCC(Cn3cncn3)C2)o1 (stereo not drawn)", "%", 0.0313],
  ["Cc1nccc(CN2CC[C@H](Oc3cccc(F)c3)[C@@](C)(O)C2)n1", "%", 6.31],
  ["O=C(NCCC1=CCCCC1)C1CCCN(c2ccc3nncn3n2)C1 (stereo not drawn)", "%", 3.56],
  ["CNC(=O)N1C[C@H]2C[C@H](C(=O)Nc3ccccc3)[C@@H](C1)O2", "%", 1.87],
  ["Cc1nc(O)c2nnn(C[C@H]3CCCN3C(=O)C(C)(C)C)c2n1", "%", 5.82],
  ["Cc1cccc(CN2C[C@@H]3COC[C@]3(CNC(=O)N3CCCC3)C2)n1", "%", 12.9],
  ["CNc1ccc(CC2CCCN(C(=O)c3cncnc3C)C2)nn1 (stereo not drawn)", "%", -5.1],
  ["Cc1noc(C)c1CN1CCN(Cc2nccn2C)CC1", "%", 3.64],
  ["Fc1cccnc1CN1CCCCC1c1ccn2ccnc2n1 (stereo not drawn)", "%", -2.65],
  ["CN(C)CC(=O)N1C[C@H]2CCC[C@@]2(COc2ccccn2)C1", "%", 1.97],
  ["O=C(NCCOc1ccc(Cl)cc1)N1CCS(=O)(=O)CC1", "%", -7.37],
  ["Cn1ncc2c1NC(=O)CC2c1ccc(O)cc1 (stereo not drawn)", "%", -2.98],
  ["c1ccc(OC2CCCC2)c(CNC2CCc3ncnn3C2)c1 (stereo not drawn)", "%", -13.9],
  ["CC(Cn1cccn1)NC(=O)NCc1ccccn1 (stereo not drawn)", "%", -5.88],
  ["CCOC1COC2(CCN(Cc3cccc(F)c3)CC2)C1 (stereo not drawn)", "%", -2.76],
  ["Cc1cncc(C2CCCN(C(=O)c3cccn3C)C2)n1 (stereo not drawn)", "%", -0.809],
  ["Cc1ncc(-c2ccnc(N3CCCCC3)n2)c(=O)[nH]1", "%", 1.07],
  ["CCc1nc(C2CCCN2C(=O)c2ccoc2C)no1 (stereo not drawn)", "%", 10.5],
  ["CN(Cc1ccco1)[C@@H]1CN(Cc2ccc(F)cc2)C[C@@H]2CCCO[C@@H]21", "%", -4.8],
  ["COCC1CC2(CCN(Cc3ccc(OC)cc3)CC2)CN1C(C)C (stereo not drawn)", "%", -0.064],
  ["Cn1cc(CN2CCC3(CC2)CC(c2ccncc2)C(=O)N3)cn1 (stereo not drawn)", "%", -3.92],
  ["COc1ncc(C2CC(=O)NCc3nc4ccccn4c32)cn1 (stereo not drawn)", "%", 1.68]
]}

====

Target: Sialic acid-binding Ig-like lectin 9 (Homo sapiens) (UniProt Q9Y336)
Assay: Hs-Siglec9 ALPHAscreen SOP 20170721
Parameters: scale not given: direction of the effect not stated beside the values
Conditions: 10 µM
The following molecules are listed with their measured Percent Effect values.
endpoint.label: Percent Effect (%)

{"columns": ["molecule", "endpoint.label", "reported.result"],
 "data": [
  ["O=C(c1ncccn1)N1C[C@H]2CCC[C@@]2(COCc2cccnc2)C1", "Percent Effect", -0.0107],
  ["CCn1nc2c(cc1=O)CN(Cc1nc(-c3ccccn3)no1)CC2", "Percent Effect", -6.79],
  ["Cc1cc(-c2nn(C)c(Cl)c2CN2Cc3ccccc3C(O)C2)no1 (stereo unspecified)", "Percent Effect", 18.2],
  ["COc1ccc(C(N)c2cccc(S(C)(=O)=O)c2)cc1 (stereo unspecified)", "Percent Effect", 7.33],
  ["COC(=O)COc1cccc(NS(=O)(=O)c2cc(C(=O)O)cs2)c1", "Percent Effect", -17.3],
  ["CC(C)c1cc(N2CCN(c3ccc(O)cc3)CC2)n2nccc2n1", "Percent Effect", 0.937],
  ["Cc1ccc(-c2nc(CN3CCCC(Cn4cncn4)C3)no2)cc1 (stereo unspecified)", "Percent Effect", 0.0125],
  ["CCc1ncc2c(n1)CN(CC(=O)Nc1nnc(C)s1)CC2", "Percent Effect", 0.404],
  ["Cc1ccoc1-c1nnc(CN2CCn3c(nnc3C3CC3)C2)o1", "Percent Effect", -0.995],
  ["CNC(=O)c1cc(S(=O)(=O)C(C)C)cs1", "Percent Effect", 28.2],
  ["Cn1nc2c(cc1=O)CN(Cc1nc(C(C)(C)C)no1)CC2", "Percent Effect", 6.04]
]}

====

Biological target: AMP-activated protein kinase, AMPK (Homo sapiens) (UniProt P54646+O43741+P54619+Q9UGJ0+Q9Y478+Q13131+Q9UGI9)
Experiment: AMP-dependent Kinase enzyme assay. An in vitro enzyme assay that detects ADP turnover that is directly proportional to AMPK activity. This uses naive AMPK that is activated during the assay with MK-8722
Type: functional
Parameters: scale not given: direction of the effect not stated beside the values
Conditions: 30 µM

{"columns": ["compound", "value.units", "Percent Effect"],
 "data": [
  ["CC(C)(C)CN(CCO)C(=O)Nc1cccc(N2CCNC2=O)c1", "%", 2.19],
  ["CN(Cc1ncnn1C1Cc2ccccc2C1)C1CCS(=O)(=O)C1 (centres undefined)", "%", 1.61],
  ["O=C(NCC(=O)N1CCCCC1)c1sccc1C1CC1", "%", -1.89],
  ["CC(=O)NC1CCCN(c2nc3ccccc3cc2CO)C1 (centres undefined)", "%", 3.71],
  ["CCn1cnnc1CNC(=O)N1CCOC(c2ccc(Cl)cc2)C1 (centres undefined)", "%", -4.37],
  ["CS(=O)(=O)NC(=O)c1ccn(-c2cccc(Br)c2)n1", "%", 2.69],
  ["CCn1cnnc1CNS(=O)(=O)N1CCCC1c1ccco1 (centres undefined)", "%", -5.92],
  ["COCC(=O)N1CCN(C(C)c2ncc(-c3ccccc3)o2)CC1 (centres undefined)", "%", 2.58],
  ["CCc1cnc(CNC(=O)NCCCO)s1", "%", 9.14],
  ["COc1ccccc1CC(=O)N(C)Cc1cc(C)on1", "%", -2.06],
  ["O=C1CCCCN1CCc1nc(C2(c3ccc(F)cc3)CCOC2)no1 (centres undefined)", "%", 0.752],
  ["O=C(C1CCOC1)N1CCN(CC(F)(F)F)c2ccccc21 (centres undefined)", "%", 11.6],
  ["CCC[C@H]1CN(c2cncc(C(=O)N(C)C)n2)C[C@@H]1N(C)C", "%", 9.69],
  ["Cc1noc(C)c1C(=O)N[C@@H]1CC[C@@H](Oc2ccccc2)[C@@H]1O", "%", 18.4],
  ["CC(C)c1nn(C)cc1CNCc1ccnc(N(C)C)c1", "%", -4.28],
  ["COc1ccc(N2CCN(Cc3nc(CSC)no3)C(C)C2=O)cc1 (centres undefined)", "%", 4.28],
  ["CN(CC1CCCCO1)c1nc2c(cc1C(N)=O)CCC2 (centres undefined)", "%", -5.23],
  ["CC1CCN(CCNC(=O)c2sccc2C2CC2)CC1", "%", 5.67],
  ["Cc1ccccc1C(=O)NC[C@@H]1CCN(C(=O)C2(O)CCCC2)C[C@H]1O", "%", 2.29],
  ["CCN(Cc1ccccn1)C1CCN(c2ccccc2)C1=O (centres undefined)", "%", -6.67],
  ["Cc1ncc(CNC(=O)NCc2c(F)cccc2OC(F)F)s1", "%", 6.42],
  ["COc1ccccc1S(=O)(=O)N1CCN(C)[C@@H]2CS(=O)(=O)C[C@@H]21", "%", -1.29],
  ["COCc1nc(CN2CCN(c3ccc(OC)cc3)C(=O)C2C)no1 (centres undefined)", "%", 6.42],
  ["C[S+]([O-])CCNC(=O)N1CCN(c2cc(F)ccc2F)CC1 (centres undefined)", "%", 2.94],
  ["Cc1nc2cc(-c3nccn3C)nn2c(N2CCCC2)c1C", "%", 16.5],
  ["COc1ccccc1C(=O)NCCC(=O)Nc1c(C)nn(C)c1C", "%", 9.26],
  ["CCc1ccc2nc(C)cc(C(=O)N[C@@H]3CNC[C@H]3O)c2c1", "%", 0.636],
  ["Cc1cccc(COc2ccc(C(C)N)cc2)c1 (centres undefined)", "%", -5.16],
  ["Cc1ccc(CNC(CCO)C2CCCCC2)nc1 (centres undefined)", "%", 2.17],
  ["Cc1cnn(CC2CCN(CC(O)Cn3cccn3)CC2)c1 (centres undefined)", "%", 11.8],
  ["COc1cc(Br)c(S(=O)(=O)NC(=O)C(C)OC)cc1OC (centres undefined)", "%", -6.43],
  ["CCn1nc(C)c(NC(=O)CN(C)C(C)c2ccon2)c1C (centres undefined)", "%", -1.21],
  ["CCc1ccc2nc(C)cc(C(=O)NC3CCNC3=O)c2c1 (centres undefined)", "%", -4.37],
  ["CNS(=O)(=O)c1ccc(CNC(=O)NCc2cc[nH]n2)cc1", "%", 2.83],
  ["Cc1ccc(C(=O)NCCN2CCOCC2)cc1N(C)S(C)(=O)=O", "%", 4.72],
  ["CC(CNC(=O)c1cnc[nH]1)Oc1ccccc1Br (centres undefined)", "%", 10.3],
  ["Cc1nn(C)c(C)c1CC(=O)NCC1(C(N)=O)CCOCC1", "%", -4.43],
  ["CC(=O)N1CCC(c2ncc(C(=O)Nc3ccc(F)cc3)c(C)n2)CC1", "%", -4.39],
  ["Fc1ccc(COCC2CCN(Cc3ccccn3)CC2)cc1", "%", 1.48],
  ["CN(C)Cc1cccc(-c2cccnc2C(=O)NCc2ccco2)c1", "%", 20],
  ["CC(C)CC(=O)N1Cc2ccccc2CC1C(=O)Nc1nccs1 (centres undefined)", "%", -4.39],
  ["CN(C)CC1(O)CCCN(C(=O)Cn2ccc3ccccc32)CC1 (centres undefined)", "%", -8.54],
  ["COc1ccc2c(c1)OCC(C(=O)NCc1ncc3c(n1)CCC3)C2 (centres undefined)", "%", -0.599],
  ["CN(Cc1cc(Br)cn1C)C(=O)Cc1cccnc1", "%", -10.2],
  ["Cc1cccnc1NC(=O)c1ccc(F)c(S(=O)(=O)N2CCC2)c1", "%", -5.84],
  ["CC(CN1CCOC1=O)NC(=O)c1cccc2cc[nH]c12 (centres undefined)", "%", 8.07],
  ["CC(Oc1ccc2c(c1)OCO2)C(=O)N1CCC(N2CCCC2)CC1 (centres undefined)", "%", 6.31],
  ["CC(O)c1cnn(-c2ccccc2)c1 (centres undefined)", "%", 12.6],
  ["O=S(=O)(NCCCn1cncn1)c1ccc2c(c1)CCO2", "%", 4.51]
]}
